# Tested System: DNMT1 (Homo sapiens, UniProt P26358)
# Sequence (P26358 whole entry): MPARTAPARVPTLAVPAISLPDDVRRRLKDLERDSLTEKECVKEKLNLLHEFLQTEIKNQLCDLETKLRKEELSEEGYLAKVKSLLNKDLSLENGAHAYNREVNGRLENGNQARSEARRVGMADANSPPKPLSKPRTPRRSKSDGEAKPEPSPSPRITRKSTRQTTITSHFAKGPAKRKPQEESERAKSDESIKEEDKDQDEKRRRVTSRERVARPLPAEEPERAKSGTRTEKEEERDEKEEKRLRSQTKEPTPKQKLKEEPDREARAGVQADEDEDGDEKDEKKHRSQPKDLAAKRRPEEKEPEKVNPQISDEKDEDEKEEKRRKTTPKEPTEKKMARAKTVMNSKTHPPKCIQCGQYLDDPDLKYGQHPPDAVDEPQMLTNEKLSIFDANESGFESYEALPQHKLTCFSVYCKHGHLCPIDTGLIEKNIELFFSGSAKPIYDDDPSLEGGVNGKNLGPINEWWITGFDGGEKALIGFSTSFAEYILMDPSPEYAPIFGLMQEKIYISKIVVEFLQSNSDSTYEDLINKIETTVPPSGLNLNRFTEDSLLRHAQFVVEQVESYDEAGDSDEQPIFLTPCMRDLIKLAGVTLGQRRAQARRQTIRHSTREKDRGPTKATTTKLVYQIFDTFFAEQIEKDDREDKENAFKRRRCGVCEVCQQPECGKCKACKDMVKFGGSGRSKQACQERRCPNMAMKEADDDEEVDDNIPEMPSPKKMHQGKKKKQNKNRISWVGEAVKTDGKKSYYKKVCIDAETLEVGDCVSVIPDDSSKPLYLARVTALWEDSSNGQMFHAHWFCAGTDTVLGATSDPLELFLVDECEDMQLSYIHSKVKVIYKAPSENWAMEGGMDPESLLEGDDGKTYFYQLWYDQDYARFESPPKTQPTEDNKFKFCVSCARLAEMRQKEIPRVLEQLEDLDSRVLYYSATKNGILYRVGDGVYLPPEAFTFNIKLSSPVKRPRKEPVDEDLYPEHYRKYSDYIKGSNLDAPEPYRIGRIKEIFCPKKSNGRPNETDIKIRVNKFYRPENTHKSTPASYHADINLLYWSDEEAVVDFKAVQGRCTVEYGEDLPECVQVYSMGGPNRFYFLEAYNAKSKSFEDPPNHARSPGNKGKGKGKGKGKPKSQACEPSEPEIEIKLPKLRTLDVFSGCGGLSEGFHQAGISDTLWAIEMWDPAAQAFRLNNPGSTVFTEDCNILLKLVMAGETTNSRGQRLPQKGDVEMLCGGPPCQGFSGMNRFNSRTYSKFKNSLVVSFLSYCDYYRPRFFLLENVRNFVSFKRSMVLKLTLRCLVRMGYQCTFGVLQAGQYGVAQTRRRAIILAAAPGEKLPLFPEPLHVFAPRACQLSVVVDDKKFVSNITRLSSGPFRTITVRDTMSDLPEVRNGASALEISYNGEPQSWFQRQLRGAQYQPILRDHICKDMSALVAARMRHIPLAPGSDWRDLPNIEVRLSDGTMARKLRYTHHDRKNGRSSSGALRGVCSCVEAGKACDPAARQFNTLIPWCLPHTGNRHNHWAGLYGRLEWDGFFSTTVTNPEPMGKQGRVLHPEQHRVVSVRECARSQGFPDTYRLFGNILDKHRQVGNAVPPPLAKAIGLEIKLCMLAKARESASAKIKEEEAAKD
Metric Name: pIC50
Schema: pIC50 number; meaning minus log10 of the concentration expressed in molar units.

Looking up C/C=C(/C=O)[C@@H](CC=O)CC(=O)OCCc1ccc(O)c(O)c1 [DOA, decarboxymethyl oleuropein aglycone] , I see its pIC50 listed as 4.94

====

The next entries give measured pIC50 for DNMT3B (Homo sapiens, UniProt Q9UBC3).
Schema: pIC50 number; meaning minus log10 of the concentration expressed in molar units.

C/C=C(/C=O)[C@@H](CC=O)CC(=O)OCCc1ccc(O)c(O)c1 [DOA, decarboxymethyl oleuropein aglycone]
5.28

Looking up Nc1ncnc2c1ncn2[C@@H]1O[C@H](CSCC[C@H](N)C(=O)O)[C@@H](O)[C@H]1O [SAH, S-adenosyl-l-homocysteine, reference compound] , I see its pIC50 listed as 5.55

====

# Tested System: mTOR (Homo sapiens, UniProt P42345)
# Measurement Notes: FRET-based Z-LYTE kinase assay
# Type: biochemical
Metric Name: IC50

Looking up C/C=C(/C=O)[C@@H](CC=O)CC(=O)OCCc1ccc(O)c(O)c1 , I see its IC50 listed as 2600 nM
